# Target Desc: Hap1 (UniProt P0CE41)
# Sequence (P0CE41 whole entry): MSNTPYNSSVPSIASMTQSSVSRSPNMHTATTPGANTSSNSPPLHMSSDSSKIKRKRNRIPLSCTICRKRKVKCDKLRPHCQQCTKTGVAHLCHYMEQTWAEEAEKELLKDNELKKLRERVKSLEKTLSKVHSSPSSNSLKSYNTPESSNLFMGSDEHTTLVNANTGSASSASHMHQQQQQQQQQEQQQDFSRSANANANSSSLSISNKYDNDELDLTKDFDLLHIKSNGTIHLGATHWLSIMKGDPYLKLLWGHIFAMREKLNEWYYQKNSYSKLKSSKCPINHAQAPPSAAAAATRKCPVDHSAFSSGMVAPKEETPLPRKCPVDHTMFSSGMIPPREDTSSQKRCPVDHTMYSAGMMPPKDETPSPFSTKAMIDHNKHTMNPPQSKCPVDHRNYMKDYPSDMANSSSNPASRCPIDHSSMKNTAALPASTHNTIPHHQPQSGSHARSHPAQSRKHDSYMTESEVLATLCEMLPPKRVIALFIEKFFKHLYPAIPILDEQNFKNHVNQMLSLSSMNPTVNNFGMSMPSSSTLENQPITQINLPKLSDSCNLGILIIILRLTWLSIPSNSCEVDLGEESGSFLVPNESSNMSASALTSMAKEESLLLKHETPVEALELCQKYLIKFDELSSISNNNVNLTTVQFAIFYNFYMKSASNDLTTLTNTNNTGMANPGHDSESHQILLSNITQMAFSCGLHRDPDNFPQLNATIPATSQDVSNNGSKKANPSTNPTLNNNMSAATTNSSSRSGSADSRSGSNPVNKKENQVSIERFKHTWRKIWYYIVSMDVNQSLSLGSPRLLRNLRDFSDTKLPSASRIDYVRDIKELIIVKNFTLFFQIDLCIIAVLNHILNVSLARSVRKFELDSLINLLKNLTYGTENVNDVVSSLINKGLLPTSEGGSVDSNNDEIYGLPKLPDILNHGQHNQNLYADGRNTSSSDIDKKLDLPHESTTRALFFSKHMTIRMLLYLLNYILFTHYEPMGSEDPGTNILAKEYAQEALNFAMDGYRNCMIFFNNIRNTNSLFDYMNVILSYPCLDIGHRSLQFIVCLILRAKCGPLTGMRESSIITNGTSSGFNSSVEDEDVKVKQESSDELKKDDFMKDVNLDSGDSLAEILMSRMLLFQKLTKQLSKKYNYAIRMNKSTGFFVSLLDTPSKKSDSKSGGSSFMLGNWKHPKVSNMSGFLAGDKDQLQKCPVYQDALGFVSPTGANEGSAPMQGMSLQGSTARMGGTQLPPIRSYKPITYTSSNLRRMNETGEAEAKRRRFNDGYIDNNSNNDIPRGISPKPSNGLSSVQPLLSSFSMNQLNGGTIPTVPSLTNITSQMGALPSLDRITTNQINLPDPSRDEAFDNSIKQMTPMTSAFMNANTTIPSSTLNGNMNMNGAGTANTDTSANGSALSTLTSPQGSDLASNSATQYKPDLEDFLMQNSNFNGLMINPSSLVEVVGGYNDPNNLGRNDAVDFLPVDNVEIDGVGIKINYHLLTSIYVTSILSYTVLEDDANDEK
# Experiment: PBM E-score (8-mer binding enrichment) (E-score (-0.5 to 0.5)); higher = stronger / more preferred TF binding
# Setup Conditions: protein concentration: 200 nM; construct: GST-DNA-binding domain
The full ranking holds about 33,000 sequences; the median of “E-score (-0.5 to 0.5)” is about -0.053, and the highest 2% start at about 0.37. This excerpt belongs to a sample that is enriched for the highest values.
Each entry gets false if its PBM E-score stays under 0.3, and true if its PBM E-score is 0.3 or above.

IN: Hello, I need to know if CACATCGC has measured PBM E-score not below 0.3. Thanks!
OUT: false

IN: Hello, I need to know if ACTCCGCG has measured PBM E-score not below 0.3. Thanks!
OUT: true

IN: Hello, I need to know if ACTCCGAC has measured PBM E-score not below 0.3. Thanks!
OUT: true

IN: Hello, I need to know if AGACACGC has measured PBM E-score not below 0.3. Thanks!
OUT: false

IN: Hello, I need to know if GCGGATTA has measured PBM E-score not below 0.3. Thanks!
OUT: false

IN: Hello, I need to know if ACGGATAA has measured PBM E-score not below 0.3. Thanks!
OUT: false

IN: Hello, I need to know if ACTCCGAA has measured PBM E-score not below 0.3. Thanks!
OUT: true

IN: Hello, I need to know if TGGGATAA has measured PBM E-score not below 0.3. Thanks!
OUT: false

IN: Hello, I need to know if ACGGATAT has measured PBM E-score not below 0.3. Thanks!
OUT: true

IN: Hello, I need to know if ACTCCGAG has measured PBM E-score not below 0.3. Thanks!
OUT: true

IN: Hello, I need to know if ACTCCCAT has measured PBM E-score not below 0.3. Thanks!
OUT: false

IN: Hello, I need to know if CCTCCGAG has measured PBM E-score not below 0.3. Thanks!
OUT: true

IN: Hello, I need to know if CCGGATTA has measured PBM E-score not below 0.3. Thanks!
OUT: true

IN: Hello, I need to know if ACTCCGCT has measured PBM E-score not below 0.3. Thanks!
OUT: false

IN: Hello, I need to know if CCTCCGAA has measured PBM E-score not below 0.3. Thanks!
OUT: true

IN: Hello, I need to know if CCTCCGCG has measured PBM E-score not below 0.3. Thanks!
OUT: false

IN: Hello, I need to know if ACGGACAC has measured PBM E-score not below 0.3. Thanks!
OUT: false

IN: Hello, I need to know if CCGAAGTA has measured PBM E-score not below 0.3. Thanks!
OUT: true

IN: Hello, I need to know if TCGGATAA has measured PBM E-score not below 0.3. Thanks!
OUT: true

IN: Hello, I need to know if ACGAACAT has measured PBM E-score not below 0.3. Thanks!
OUT: false

IN: Hello, I need to know if GAATCGAA has measured PBM E-score not below 0.3. Thanks!
OUT: false

---

# Target Desc: Hap1 (UniProt P0CE41)
# Experiment: PBM E-score (8-mer binding enrichment) (E-score (-0.5 to 0.5)); higher = stronger / more preferred TF binding
# Setup Conditions: protein concentration: 200 nM; construct: GST-DNA-binding domain
Whole data set: some 33,000 sequences, median “E-score (-0.5 to 0.5)” near -0.053, cut for the highest 2% near 0.37. This is one part of a sample in which the highest values are shown more often than they occur.
Each entry gets not satisfied if its PBM E-score stays under 0.2, and satisfied if its PBM E-score is 0.2 or above.

IN: Hello, I need to know if AACCCCGT has measured PBM E-score not below 0.2. Thanks!
OUT: satisfied

IN: Hello, I need to know if CCTTGGAG has measured PBM E-score not below 0.2. Thanks!
OUT: not satisfied

IN: Hello, I need to know if ATATCGGG has measured PBM E-score not below 0.2. Thanks!
OUT: satisfied

IN: Hello, I need to know if ACCATGCG has measured PBM E-score not below 0.2. Thanks!
OUT: not satisfied

IN: Hello, I need to know if AGATACAC has measured PBM E-score not below 0.2. Thanks!
OUT: not satisfied

IN: Hello, I need to know if AGCTCCCG has measured PBM E-score not below 0.2. Thanks!
OUT: not satisfied

IN: Hello, I need to know if GCCCAGCA has measured PBM E-score not below 0.2. Thanks!
OUT: not satisfied

IN: Hello, I need to know if ACCGCAGT has measured PBM E-score not below 0.2. Thanks!
OUT: not satisfied

IN: Hello, I need to know if TACCGACA has measured PBM E-score not below 0.2. Thanks!
OUT: satisfied

IN: Hello, I need to know if AACCGATA has measured PBM E-score not below 0.2. Thanks!
OUT: satisfied

IN: Hello, I need to know if GAATCCGC has measured PBM E-score not below 0.2. Thanks!
OUT: not satisfied

IN: Hello, I need to know if TAATCCGA has measured PBM E-score not below 0.2. Thanks!
OUT: satisfied

IN: Hello, I need to know if CGTGCACC has measured PBM E-score not below 0.2. Thanks!
OUT: not satisfied

IN: Hello, I need to know if AAATCCGC has measured PBM E-score not below 0.2. Thanks!
OUT: satisfied

IN: Hello, I need to know if GATTCTAC has measured PBM E-score not below 0.2. Thanks!
OUT: not satisfied

IN: Hello, I need to know if GGTAGAAC has measured PBM E-score not below 0.2. Thanks!
OUT: not satisfied

IN: Hello, I need to know if TCCCCCGA has measured PBM E-score not below 0.2. Thanks!
OUT: satisfied

IN: Hello, I need to know if CCCCCCGA has measured PBM E-score not below 0.2. Thanks!
OUT: satisfied

IN: Hello, I need to know if TACCGATA has measured PBM E-score not below 0.2. Thanks!
OUT: satisfied

IN: Hello, I need to know if CAATCCGG has measured PBM E-score not below 0.2. Thanks!
OUT: satisfied

IN: Hello, I need to know if CCTTGAGA has measured PBM E-score not below 0.2. Thanks!
OUT: not satisfied

IN: Hello, I need to know if AACCGATT has measured PBM E-score not below 0.2. Thanks!
OUT: satisfied

IN: Hello, I need to know if CCCCTTAC has measured PBM E-score not below 0.2. Thanks!
OUT: not satisfied

IN: Hello, I need to know if GAGTGTCA has measured PBM E-score not below 0.2. Thanks!
OUT: not satisfied

IN: Hello, I need to know if GAAGACTA has measured PBM E-score not below 0.2. Thanks!
OUT: not satisfied

IN: Hello, I need to know if GGCTCCGA has measured PBM E-score not below 0.2. Thanks!
OUT: satisfied

IN: Hello, I need to know if ATACCTTA has measured PBM E-score not below 0.2. Thanks!
OUT: not satisfied

IN: Hello, I need to know if ACCCGGCG has measured PBM E-score not below 0.2. Thanks!
OUT: satisfied

IN: Hello, I need to know if AAACCCTA has measured PBM E-score not below 0.2. Thanks!
OUT: not satisfied

IN: Hello, I need to know if GTTCCGAA has measured PBM E-score not below 0.2. Thanks!
OUT: satisfied

IN: Hello, I need to know if CGGGCAAA has measured PBM E-score not below 0.2. Thanks!
OUT: satisfied

IN: Hello, I need to know if GCCCGGAC has measured PBM E-score not below 0.2. Thanks!
OUT: satisfied

IN: Hello, I need to know if CCTCGGCG has measured PBM E-score not below 0.2. Thanks!
OUT: satisfied

IN: Hello, I need to know if ACCCCCGA has measured PBM E-score not below 0.2. Thanks!
OUT: satisfied

IN: Hello, I need to know if AATACCAT has measured PBM E-score not below 0.2. Thanks!
OUT: not satisfied

IN: Hello, I need to know if AAATCGGG has measured PBM E-score not below 0.2. Thanks!
OUT: satisfied

IN: Hello, I need to know if ATTTTGAC has measured PBM E-score not below 0.2. Thanks!
OUT: not satisfied

IN: Hello, I need to know if TAGCACCA has measured PBM E-score not below 0.2. Thanks!
OUT: not satisfied

IN: Hello, I need to know if TAATTAGA has measured PBM E-score not below 0.2. Thanks!
OUT: not satisfied

IN: Hello, I need to know if TACCGAAA has measured PBM E-score not below 0.2. Thanks!
OUT: not satisfied

IN: Hello, I need to know if CAGAACAA has measured PBM E-score not below 0.2. Thanks!
OUT: not satisfied

IN: Hello, I need to know if CACCGATC has measured PBM E-score not below 0.2. Thanks!
OUT: satisfied

IN: Hello, I need to know if CCCCGGGG has measured PBM E-score not below 0.2. Thanks!
OUT: satisfied

IN: Hello, I need to know if CAATCCGA has measured PBM E-score not below 0.2. Thanks!
OUT: satisfied

IN: Hello, I need to know if AACGCGAA has measured PBM E-score not below 0.2. Thanks!
OUT: not satisfied

IN: Hello, I need to know if CCGAAGTC has measured PBM E-score not below 0.2. Thanks!
OUT: satisfied

IN: Hello, I need to know if ACTTGAGA has measured PBM E-score not below 0.2. Thanks!
OUT: not satisfied

IN: Hello, I need to know if GATATCGC has measured PBM E-score not below 0.2. Thanks!
OUT: satisfied

IN: Hello, I need to know if ATGGCTCA has measured PBM E-score not below 0.2. Thanks!
OUT: not satisfied

IN: Hello, I need to know if GTTCCGGA has measured PBM E-score not below 0.2. Thanks!
OUT: satisfied

IN: Hello, I need to know if CGCTCCGA has measured PBM E-score not below 0.2. Thanks!
OUT: satisfied

IN: Hello, I need to know if ACCCGGAG has measured PBM E-score not below 0.2. Thanks!
OUT: satisfied

IN: Hello, I need to know if ATTCCGTA has measured PBM E-score not below 0.2. Thanks!
OUT: satisfied

IN: Hello, I need to know if CCCCCAAG has measured PBM E-score not below 0.2. Thanks!
OUT: not satisfied

IN: Hello, I need to know if GACCGACA has measured PBM E-score not below 0.2. Thanks!
OUT: satisfied

IN: Hello, I need to know if GACCGATA has measured PBM E-score not below 0.2. Thanks!
OUT: satisfied

IN: Hello, I need to know if CCCCGGGC has measured PBM E-score not below 0.2. Thanks!
OUT: satisfied

IN: Hello, I need to know if CTTCCGTA has measured PBM E-score not below 0.2. Thanks!
OUT: satisfied

IN: Hello, I need to know if ACTCGGCG has measured PBM E-score not below 0.2. Thanks!
OUT: satisfied

IN: Hello, I need to know if AGACACGG has measured PBM E-score not below 0.2. Thanks!
OUT: not satisfied

IN: Hello, I need to know if CTTCCGGA has measured PBM E-score not below 0.2. Thanks!
OUT: satisfied

IN: Hello, I need to know if GCTCGGAA has measured PBM E-score not below 0.2. Thanks!
OUT: satisfied

IN: Hello, I need to know if CTTTCTTA has measured PBM E-score not below 0.2. Thanks!
OUT: not satisfied

IN: Hello, I need to know if TAAAGGCA has measured PBM E-score not below 0.2. Thanks!
OUT: not satisfied

IN: Hello, I need to know if ATGTGACG has measured PBM E-score not below 0.2. Thanks!
OUT: not satisfied

IN: Hello, I need to know if ACCCCCGT has measured PBM E-score not below 0.2. Thanks!
OUT: not satisfied

IN: Hello, I need to know if GTACCTCA has measured PBM E-score not below 0.2. Thanks!
OUT: not satisfied

IN: Hello, I need to know if ACCCTCAG has measured PBM E-score not below 0.2. Thanks!
OUT: not satisfied

IN: Hello, I need to know if ATGCACAT has measured PBM E-score not below 0.2. Thanks!
OUT: not satisfied

IN: Hello, I need to know if CTCACACC has measured PBM E-score not below 0.2. Thanks!
OUT: not satisfied

IN: Hello, I need to know if ACTAAGCC has measured PBM E-score not below 0.2. Thanks!
OUT: not satisfied

IN: Hello, I need to know if ATTCCGGA has measured PBM E-score not below 0.2. Thanks!
OUT: satisfied

IN: Hello, I need to know if AAACGTCG has measured PBM E-score not below 0.2. Thanks!
OUT: not satisfied

IN: Hello, I need to know if AACGCGCG has measured PBM E-score not below 0.2. Thanks!
OUT: not satisfied

IN: Hello, I need to know if CCGGGCTC has measured PBM E-score not below 0.2. Thanks!
OUT: satisfied

IN: Hello, I need to know if CTAACGGA has measured PBM E-score not below 0.2. Thanks!
OUT: satisfied

IN: Hello, I need to know if AACCCCCA has measured PBM E-score not below 0.2. Thanks!
OUT: not satisfied

IN: Hello, I need to know if CTCCTCAC has measured PBM E-score not below 0.2. Thanks!
OUT: not satisfied

IN: Hello, I need to know if CACCGATA has measured PBM E-score not below 0.2. Thanks!
OUT: satisfied

IN: Hello, I need to know if GAATCCGA has measured PBM E-score not below 0.2. Thanks!
OUT: satisfied

IN: Hello, I need to know if GACCGATC has measured PBM E-score not below 0.2. Thanks!
OUT: satisfied

IN: Hello, I need to know if GAGAGATA has measured PBM E-score not below 0.2. Thanks!
OUT: not satisfied

IN: Hello, I need to know if CCAACTGA has measured PBM E-score not below 0.2. Thanks!
OUT: not satisfied

IN: Hello, I need to know if AGGGATGG has measured PBM E-score not below 0.2. Thanks!
OUT: not satisfied

IN: Hello, I need to know if AGCTCCGC has measured PBM E-score not below 0.2. Thanks!
OUT: satisfied

IN: Hello, I need to know if AAATCCCG has measured PBM E-score not below 0.2. Thanks!
OUT: satisfied

IN: Hello, I need to know if CAATTCGG has measured PBM E-score not below 0.2. Thanks!
OUT: satisfied

IN: Hello, I need to know if TTGCGCAA has measured PBM E-score not below 0.2. Thanks!
OUT: not satisfied
